Reference for the values: patent US20170029481A1

Target: T1, erythropoietin receptor, human recombinant (NSO cells) (human, UniProt P19235 25-250, limits assumed)
T1 construct: also called EPOR; EPO receptor
T1 sequence (looked up): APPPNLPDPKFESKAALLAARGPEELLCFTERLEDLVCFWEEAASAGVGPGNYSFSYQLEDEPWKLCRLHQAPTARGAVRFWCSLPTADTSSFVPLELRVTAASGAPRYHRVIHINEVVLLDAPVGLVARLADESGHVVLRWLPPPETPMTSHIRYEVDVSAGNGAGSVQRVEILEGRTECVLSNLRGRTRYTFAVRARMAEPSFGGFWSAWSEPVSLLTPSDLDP
Assay: radioligand binding, displacement of [125I]EPO
Where no end group is shown, it is not given here.
observation type: Ki (nM)
Express the result in nM but write the number alone.

Challenge: Please look at this binder and report its Ki: GGNYLCRMGPITWVCKPQGG (not fully specified; cysteine pairing not given here, Structure only as drawing CHEM-US-00003; also called compound 001) [AC-0005-001]
Response given: 615

Challenge: Please look at this binder and report its Ki: GGLYACHMGPITAVCQPQGG (not fully specified; cysteine pairing not given here, Structure only as drawing CHEM-US-00004; also called compound 002) [AC-0005-002]
Response given: 3870

Challenge: Please look at this binder and report its Ki: LYACHMGPITAVCQP (not fully specified; cysteine pairing not given here, Structure only as drawing CHEM-US-00006; also called compound 004) [AC-0005-004]
Response given: 126

Challenge: Please look at this binder and report its Ki: NYLCRMGPITWVCKP (not fully specified; cysteine pairing not given here, Structure only as drawing CHEM-US-00005; also called compound 003; Control 2: AC-0005-003) [AC-0005-003]
Response given: 56
